Method description: Solubility of the compound in FaSSIF measured after 4 hrs
Format: physicochemical
Value type: solubility at 4 h (µg/mL)
# value in µg/mL; strip the unit string

Reference set (5 entries):
{"columns": ["Smiles", "solubility at 4 h [µg/mL]"],
 "data": [
  ["NC(=O)c1ccc(Nc2nc(NCC(F)(F)F)c3cc[nH]c3n2)cc1", 8.6],
  ["CCOc1nc(Nc2ccc(C(=O)N3CCOCC3)cc2OC)nc2[nH]ccc12", 127],
  ["CCOc1nc(Nc2ccc(C(=O)N3CCN4CCC[C@@H]4C3)cc2OC)nc2[nH]ccc12", 300],
  ["CCOc1nc(Nc2ccc(C(=O)N3CCN4CCC[C@H]4C3)cc2OC)nc2[nH]ccc12", 309],
  ["CCOc1nc(Nc2ccc(C(=O)N3C[C@@H](C)O[C@@H](C)C3)cc2OC)nc2[nH]ccc12", 4.4]
]}

Consider the compound "CCOc1nc(Nc2ccc(C(=O)N3CCOC[C@@H]3C)cc2OC)nc2[nH]ccc12" and give its recorded solubility at 4 h.
154

Consider the compound "CCOc1nc(Nc2ccc(C(=O)N3CC4(COC4)C3)cc2OC)nc2[nH]ccc12" and give its recorded solubility at 4 h.
6.2

----------
Test target: Leucine-rich repeat serine/threonine-protein kinase 2 (Homo sapiens)
Sequence (Q5S007 whole entry): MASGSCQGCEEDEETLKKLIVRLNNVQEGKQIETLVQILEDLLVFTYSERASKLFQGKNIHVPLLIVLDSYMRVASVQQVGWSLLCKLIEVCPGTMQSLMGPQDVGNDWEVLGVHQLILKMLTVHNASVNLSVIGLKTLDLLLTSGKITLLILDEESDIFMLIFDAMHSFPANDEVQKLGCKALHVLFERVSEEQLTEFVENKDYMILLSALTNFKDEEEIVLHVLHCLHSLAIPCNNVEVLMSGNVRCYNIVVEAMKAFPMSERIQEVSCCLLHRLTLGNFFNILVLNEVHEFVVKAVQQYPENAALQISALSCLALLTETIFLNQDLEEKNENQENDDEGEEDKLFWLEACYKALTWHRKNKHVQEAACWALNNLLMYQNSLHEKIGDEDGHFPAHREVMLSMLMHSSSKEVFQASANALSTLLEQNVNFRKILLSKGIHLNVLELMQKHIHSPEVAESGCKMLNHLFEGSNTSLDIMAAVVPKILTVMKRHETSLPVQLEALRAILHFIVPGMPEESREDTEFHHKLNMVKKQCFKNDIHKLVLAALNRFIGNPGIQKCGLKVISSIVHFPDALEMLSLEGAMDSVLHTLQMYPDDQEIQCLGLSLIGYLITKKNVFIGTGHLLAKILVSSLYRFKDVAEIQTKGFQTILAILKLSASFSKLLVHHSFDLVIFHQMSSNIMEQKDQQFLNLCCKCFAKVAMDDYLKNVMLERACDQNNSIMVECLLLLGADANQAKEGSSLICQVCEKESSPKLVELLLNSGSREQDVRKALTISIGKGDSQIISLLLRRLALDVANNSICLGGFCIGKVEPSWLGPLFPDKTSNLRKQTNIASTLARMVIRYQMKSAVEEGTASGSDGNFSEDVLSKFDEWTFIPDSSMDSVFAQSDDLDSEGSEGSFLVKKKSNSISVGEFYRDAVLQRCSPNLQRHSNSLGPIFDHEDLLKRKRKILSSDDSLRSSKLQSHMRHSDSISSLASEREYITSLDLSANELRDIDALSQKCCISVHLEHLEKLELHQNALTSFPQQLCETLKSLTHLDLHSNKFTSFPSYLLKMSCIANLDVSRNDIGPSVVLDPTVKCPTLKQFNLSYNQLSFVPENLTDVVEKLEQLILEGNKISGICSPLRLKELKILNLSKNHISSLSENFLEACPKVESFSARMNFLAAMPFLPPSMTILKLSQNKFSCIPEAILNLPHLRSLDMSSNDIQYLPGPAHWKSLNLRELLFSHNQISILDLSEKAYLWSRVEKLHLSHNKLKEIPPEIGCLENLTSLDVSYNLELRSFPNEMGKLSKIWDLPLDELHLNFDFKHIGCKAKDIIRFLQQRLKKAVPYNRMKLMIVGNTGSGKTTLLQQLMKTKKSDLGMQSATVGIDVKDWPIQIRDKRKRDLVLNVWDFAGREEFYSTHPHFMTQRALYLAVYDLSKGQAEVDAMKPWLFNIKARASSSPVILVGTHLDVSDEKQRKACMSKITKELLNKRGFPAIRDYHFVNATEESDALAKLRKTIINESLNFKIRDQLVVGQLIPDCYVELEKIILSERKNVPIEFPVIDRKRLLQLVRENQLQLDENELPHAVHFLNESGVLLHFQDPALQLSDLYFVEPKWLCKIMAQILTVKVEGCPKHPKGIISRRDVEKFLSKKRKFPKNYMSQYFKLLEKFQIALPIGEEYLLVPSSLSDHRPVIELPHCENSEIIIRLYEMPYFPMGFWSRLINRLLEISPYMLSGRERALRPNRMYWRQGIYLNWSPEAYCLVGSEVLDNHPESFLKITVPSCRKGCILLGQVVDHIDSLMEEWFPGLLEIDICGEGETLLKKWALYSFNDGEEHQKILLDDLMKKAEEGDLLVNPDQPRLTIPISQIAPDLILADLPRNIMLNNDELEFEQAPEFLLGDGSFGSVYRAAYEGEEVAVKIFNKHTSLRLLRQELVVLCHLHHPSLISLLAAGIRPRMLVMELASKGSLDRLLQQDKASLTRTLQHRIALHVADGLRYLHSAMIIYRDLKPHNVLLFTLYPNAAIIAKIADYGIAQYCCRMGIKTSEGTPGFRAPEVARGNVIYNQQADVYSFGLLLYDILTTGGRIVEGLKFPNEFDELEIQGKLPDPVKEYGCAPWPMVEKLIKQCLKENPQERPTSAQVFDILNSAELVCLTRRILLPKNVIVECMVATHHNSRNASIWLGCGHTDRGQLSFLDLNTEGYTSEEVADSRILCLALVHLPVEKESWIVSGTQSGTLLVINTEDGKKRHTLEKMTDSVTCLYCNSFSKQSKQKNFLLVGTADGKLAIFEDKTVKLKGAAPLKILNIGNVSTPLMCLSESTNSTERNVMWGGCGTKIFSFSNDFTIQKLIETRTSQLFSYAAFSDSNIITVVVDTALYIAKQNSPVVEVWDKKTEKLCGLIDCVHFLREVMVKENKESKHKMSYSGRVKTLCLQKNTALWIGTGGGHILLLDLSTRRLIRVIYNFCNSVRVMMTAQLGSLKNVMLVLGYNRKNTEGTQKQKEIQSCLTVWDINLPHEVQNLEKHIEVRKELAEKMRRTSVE
Method description: Inhibition of recombinant full-length LRRK2 (unknown origin) expressed in SH-SY5Y cells assessed as reduction in Ser935 phosphorylation after 60 mins by Alpha Screen assay
Type: cell-based
Parameter IC50: see the listing below.
Include the unit after the number when you answer.

Reference set (5 entries):
{"columns": ["Smiles", "Test target", "IC50"],
 "data": [
  ["CCOc1nc(Nc2ccc(C(=O)N3CCN(C)CC3)cc2OC(F)F)nc2[nH]ccc12", "Leucine-rich repeat serine/threonine-protein kinase 2 (Homo sapiens)", "158 nM"],
  ["CCOc1cc(C(=O)N2CCN(C)CC2)ccc1Nc1nc(OCC)c2cc[nH]c2n1", "Leucine-rich repeat serine/threonine-protein kinase 2 (Homo sapiens)", "126 nM"],
  ["NC(=O)c1ccc(Nc2nc(NCC(F)(F)F)c3cc[nH]c3n2)cc1", "Leucine-rich repeat serine/threonine-protein kinase 2 (Homo sapiens)", "50.1 nM"],
  ["CCOc1nc(Nc2ccc(C(=O)N3CCN(C)CC3)cc2Cl)nc2[nH]ccc12", "Leucine-rich repeat serine/threonine-protein kinase 2 (Homo sapiens)", "251 nM"],
  ["CCOc1nc(Nc2ccc(C(=O)N3C[C@@H](C)O[C@@H](C)C3)cc2OC)nc2[nH]ccc12", "Leucine-rich repeat serine/threonine-protein kinase 2 (Homo sapiens)", "200 nM"]
]}

Consider the compound "CCOc1nc(Nc2ccc(C(=O)N3CCOC[C@H]3C)cc2OC)nc2[nH]ccc12" and give its recorded IC50.
79.4 nM

----------
Method description: Lipophilicity, logD of compound at pH 7.4
Test parameters: buffer
Parameter logD: see the listing below.
Give a plain numeric answer without units written out.

{"columns": ["Smiles", "Value type", "Observed result"],
 "data": [
  ["CCOc1nc(Nc2ccc(C(=O)N3CCC4(CC3)CN(C)C4)cc2OC)nc2[nH]ccc12", "logD", 3],
  ["CCOc1nc(Nc2ccc(C(=O)N3CC4(COC4)C3)cc2OC)nc2[nH]ccc12", "logD", 4.3],
  ["CCOc1nc(Nc2ccc(C(=O)N3CCOCC3)cc2)nc2[nH]ccc12", "logD", 3.9],
  ["CCOc1nc(Nc2ccc(C(=O)N3CCN4CCC[C@@H]4C3)cc2OC)nc2[nH]ccc12", "logD", 4.9],
  ["CCOc1nc(Nc2ccc(C(=O)N3CCOC[C@H]3C)cc2OC)nc2[nH]ccc12", "logD", 5.1]
]}

Consider the compound "NC(=O)c1ccc(Nc2nc(NCC(F)(F)F)c3cc[nH]c3n2)cc1" and give its recorded logD.
2.8

Consider the compound "CCOc1nc(Nc2ccc(C(=O)NCC(C)(C)O)cc2OC)nc2[nH]ccc12" and give its recorded logD.
4.1

Consider the compound "CCOc1nc(Nc2ccc(C(=O)N3CCOC[C@@H]3C)cc2OC)nc2[nH]ccc12" and give its recorded logD.
5

Consider the compound "CCOc1nc(Nc2ccc(C(=O)N3C[C@@H](C)O[C@@H](C)C3)cc2OC)nc2[nH]ccc12" and give its recorded logD.
5.7

Consider the compound "CCOc1nc(Nc2ccc(C(=O)N3CCN4CCC[C@H]4C3)cc2OC)nc2[nH]ccc12" and give its recorded logD.
4.9

Consider the compound "CCOc1nc(Nc2ccc(C(=O)N3CCOCC3)cc2OC)nc2[nH]ccc12" and give its recorded logD.
4.5

Values were extracted from ChEMBL document CHEMBL4715821.
